FYI, the data here is from ChEMBL document CHEMBL4004824.

tested on: K562; assay: Induction of apoptosis in human K562 cells at antiproliferative IC50 after 72 hrs by Annexin-V-FITC/propidium iodide staining based flow cytometry relative to control; assay type: functional

{"Structure": "[N-]=[N+]=N[C@@H](c1ccccc1)[C@H]1O[C@@H]2CC(=O)O[C@@H]2[C@H]1O", "Activity": "0.16%"}
{"Structure": "O=C1C[C@H]2O[C@H]([C@H](F)c3ccccc3)[C@H](O)[C@H]2O1", "Activity": "7.63%"}
{"Structure": "O=C1C[C@H]2O[C@H](CBr)[C@H](O)[C@H]2O1", "Activity": "19.59%"}
{"Structure": "O=C1C[C@H]2O[C@H]([C@@H](Cl)c3ccccc3)[C@H](O)[C@H]2O1", "Activity": "38.77%"}
{"Structure": "O=C1C[C@H]2O[C@H](CF)[C@H](O)[C@H]2O1", "Activity": "11.33%"}
{"Structure": "O=C1C[C@H]2O[C@H]([C@@H](Br)c3ccccc3)[C@H](O)[C@H]2O1", "Activity": "1.7%"}
{"Structure": "O=C1C[C@H]2O[C@H]([C@@H](I)c3ccccc3)[C@H](O)[C@H]2O1", "Activity": "5.81%"}
{"Structure": "O=C1C[C@H]2O[C@H]([C@H](I)c3ccccc3)[C@H](O)[C@H]2O1", "Activity": "2.61%"}
{"Structure": "O=C1C[C@H]2O[C@H]([C@H](Br)c3ccccc3)[C@H](O)[C@H]2O1", "Activity": "2.27%"}
{"Structure": "O=C1C[C@H]2O[C@H](CI)[C@H](O)[C@H]2O1", "Activity": "0.97%"}
{"Structure": "O=C1C[C@H]2O[C@H]([C@@H](F)c3ccccc3)[C@H](O)[C@H]2O1", "Activity": "6.43%"}
{"Structure": "O=C1C[C@H]2O[C@H]([C@H](O)c3ccccc3)[C@H](O)[C@H]2O1", "Activity": "1.23%"}
{"Structure": "O=C1C[C@H]2O[C@H](CCl)[C@H](O)[C@H]2O1", "Activity": "0.3%"}
{"Structure": "O=C1C[C@H]2O[C@H]([C@H](Cl)c3ccccc3)[C@H](O)[C@H]2O1", "Activity": "58.36%"}
{"Structure": "O=C1C[C@H]2O[C@H](CO)[C@H](O)[C@H]2O1", "Activity": "0.05%"}
{"Structure": "[N-]=[N+]=N[C@H](c1ccccc1)[C@H]1O[C@@H]2CC(=O)O[C@@H]2[C@H]1O", "Activity": "31.42%"}
{"Structure": "O=C1C[C@H]2O[C@H]([C@@H](O)c3ccccc3)[C@H](O)[C@H]2O1", "Activity": "4.39%"}
{"Structure": "[N-]=[N+]=NC[C@H]1O[C@@H]2CC(=O)O[C@@H]2[C@H]1O", "Activity": "18.1%"}

----------
system: K562; assay: Induction of apoptosis in human K562 cells assessed as precursor PARP expression level at antiproliferative IC50 after 72 hrs by western blot analysis relative to control; type: functional
Where Activity equals or exceeds 200%, the correct label is label 1; where it does not, the label is label 0.

{"Structure": "[N-]=[N+]=N[C@H](c1ccccc1)[C@H]1O[C@@H]2CC(=O)O[C@@H]2[C@H]1O", "Label": "label 0"}
{"Structure": "[N-]=[N+]=N[C@@H](c1ccccc1)[C@H]1O[C@@H]2CC(=O)O[C@@H]2[C@H]1O", "Label": "label 0"}
{"Structure": "O=C1C[C@H]2O[C@H]([C@H](O)c3ccccc3)[C@H](O)[C@H]2O1", "Label": "label 0"}
{"Structure": "O=C1C[C@H]2O[C@H]([C@H](I)c3ccccc3)[C@H](O)[C@H]2O1", "Label": "label 0"}
{"Structure": "O=C1C[C@H]2O[C@H](CBr)[C@H](O)[C@H]2O1", "Label": "label 1"}
{"Structure": "O=C1C[C@H]2O[C@H]([C@@H](F)c3ccccc3)[C@H](O)[C@H]2O1", "Label": "label 0"}
{"Structure": "[N-]=[N+]=NC[C@H]1O[C@@H]2CC(=O)O[C@@H]2[C@H]1O", "Label": "label 1"}
{"Structure": "O=C1C[C@H]2O[C@H](CI)[C@H](O)[C@H]2O1", "Label": "label 1"}
